Assay: in vitro
Set-up: CellTiter-Glo cell viability, compound alone
Conditions: mouse, hei-oc1 cells; compound alone; read-out: LD50 (μM) in HEI cells
recorded metric: CC50 at 22 h

Provide one value: measured CC50 at 22 h of Cc1oncc1C(=O)Nc1ccc(C(F)(F)F)cc1 [Leflunomide] > 40 µM

Provide one value: measured CC50 at 22 h of CCCCCC[C@H]1C(=O)O[C@H](C)[C@H](NC(=O)c2cccc(NC=O)c2O)C(=O)O[C@@H](C)[C@@H]1OC(=O)CC(C)C [Antimycin A] > 10 µM

Provide one value: measured CC50 at 22 h of CCOc1cc2ncc(C#N)c(Nc3ccc(F)c(Cl)c3)c2cc1NC(=O)/C=C/CN(C)C [Pelitinib] > 40 µM

Provide one value: measured CC50 at 22 h of O=c1cc(CN2CCOCC2)occ1OCCCCCSc1ccnc2cc(C(F)(F)F)ccc12 [EHT1864] > 20 µM

Provide one value: measured CC50 at 22 h of NS(=O)(=O)c1ccc(N=Nc2c(O)[nH]c3ccc(Br)cc23)cc1 [CDK2 inhibitor II] > 40 µM

----------
Test: in vitro
Design: CellTiter-Glo cell viability, compound alone
Conditions: mouse, hei-oc1 cells; compound alone; read-out: LD50 (μM) in HEI cells
recorded metric: CC50 at 22 h

Provide one value: measured CC50 at 22 h of CC[C@H](CO)Nc1nc(NCc2ccccc2O)c2ncn(C(C)C)c2n1 [Olomoucine II] > 40 µM

Provide one value: measured CC50 at 22 h of O=C1Cc2c([nH]c3ccc(Br)cc23)-c2ccccc2N1 [kenpaullone] > 40 µM

Provide one value: measured CC50 at 22 h of O=C(O)c1cc(/N=N/c2ccc(O)c(C(=O)O)c2)ccc1O [Olsalazine sodium] > 40 µM
